- Test system: MS2 coat protein
- Assay details: apparent Kd, MS2 coat protein; higher = weaker binding; RNA-MaP array; FMN 200 µM where present
- Condition parameters: designed as: ON switch for flavin mononucleotide; no ligand
Measured attribute: apparent Kd
Answer as a quantity: numeral, then unit.

// known answers, use as guide
>>> recorded_result("AAAAAACAUGAGGAUCACCCAUGUCGAAAGACAUGAGGAUAUGUACAGACUUCGGUCUGUACAGAAGGCAUGUCUU")
"37.3 nM"
>>> recorded_result("UUUAAUCGAAACAUGAGGAUCACCCAUGUGUUGUAAUUAACAUAGGAUAUUUGUAUGCUUUUGUAAGAGAAGGAUGAUAAUACU")
"21.2 nM"
>>> recorded_result("UCAUUUAUUACAGGAUAUAUUAGUAUACAGUUGUUUGGUUAUUACAUAUUAAUAGAAGGGUAGAACAUGAGGAUCACCCAUGUA")
"234 nM"
>>> recorded_result("AAAAUCAAUUGAGGAUAUUCAUACACUACAUACGGAGAAGGCAAACAAUCAUGAGGACAUGAGGAUCACCCAUGUUGUGACCAU")
"22.3 nM"
>>> recorded_result("GGUGUCAUCGAGAAGGCCUCAACAUGAGGAUCACCCAUGUUGUAAUAUGGGAGGAUAUCGAUGAUACAGCUACGUUUCGUAGCC")
"20.7 nM"
>>> recorded_result("GUGGAGUACGUAGGAUAUGUAGGAUAUUCCUACAUGAGGAUCACCCAUGUAAGCAUGGAAGAAGGACAGAAGGACGUGCUCCAG")
"231 nM"

Let's switch to this sequence now.
**Query** // query apparent Kd value for entry ACGGAACAUGAGGAUCACCCAUGUAUCUGAAAUAUGGACUCACAGGAUAUCCAGAGUUGCCAAUCGGAGAAGGGUGACUCCAGA
**Result** 20.1 nM
